Where do these numbers come from? They come from paper PMC5055850.

MEASURED ON: FPR3 (Homo sapiens, UniProt P25089)
Sequence (P25089 whole entry): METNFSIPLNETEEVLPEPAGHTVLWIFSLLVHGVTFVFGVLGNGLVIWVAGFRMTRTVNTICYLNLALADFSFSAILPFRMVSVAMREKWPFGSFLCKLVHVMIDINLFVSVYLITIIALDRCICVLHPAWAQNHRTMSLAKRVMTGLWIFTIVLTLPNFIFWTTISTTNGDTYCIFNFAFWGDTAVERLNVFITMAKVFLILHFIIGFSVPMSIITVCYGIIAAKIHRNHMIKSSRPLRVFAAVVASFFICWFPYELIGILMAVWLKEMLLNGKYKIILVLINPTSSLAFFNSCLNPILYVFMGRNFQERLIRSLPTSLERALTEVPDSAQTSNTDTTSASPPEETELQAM
PROCEDURE TEXT: Ca2+ flux assay in FPR3-HL60 cells
Format: cell-based
Provide the recorded pEC50 for the entries that follow.
// scale note: pEC50 = -log10(conc_M); give the bare number

Task: Sample COc1cccc(Nc2c(C(C)=O)c(C)nn(CC(=O)Nc3ccc(Br)cc3)c2=O)c1 [Compound 8a] — what was its pEC50?
Output: 6.68

Task: Sample C=Cc1c(C)nn(CC(=O)Nc2ccc(Br)cc2)c(=O)c1Nc1cccc(OC)c1 [Compound 15] — what was its pEC50?
Output: 5.22

Task: Sample COc1ccc(Nc2c(-c3ccn(C)n3)c(C)nn(CC(=O)Nc3ccc(Br)cc3)c2=O)cc1 [Compound 27b] — what was its pEC50?
Output: 6.17

Task: Sample CCc1c(C)nn(CC(=O)Nc2ccc(Br)cc2)c(=O)c1Nc1cccc(OC)c1 [Compound 13a] — what was its pEC50?
Output: 6.34
